Entries and their measured % EXPRESSION follow.
Tested on: JNK2 mRNA
Test details: Northern assay of JNK2 mRNA expression in A549 cells
Format: cell-based, human
Assay conditions: JNK2 mRNA, A549 cells, 400 nM oligonucleotide, relative to LIPOFECTIN-only control
Strand notation (5' to 3'): a small letter for the sugar, then the base; units joined by * are phosphorothioate-linked, units joined directly phosphodiester-linked; [ ] holds rarer units or linkages, { } end groups; capitals alone tell only the bases. d = 2'-deoxy (DNA)
Could you give me the number in %? Just the number is fine.

Check out these entries, answers already filled in.
Exercise: Provide the documented % EXPRESSION with JNK2 mRNA as the system for 12568 (antisense dC*dA*dT*dT*dT*dC*dA*dG*dG*dC*dC*dC*dA*dC*dG*dG*dA*dG*dG*dT) [compound 12568]
Solution: 20

Exercise: Another substance to look at: 12561 (antisense dC*dA*dG*dG*dA*dT*dG*dA*dC*dT*dT*dC*dG*dG*dG*dC*dG*dC*dC*dC) [compound 12561]
Solution: 60

Exercise: One more substance: 12564 (antisense dC*dT*dG*dC*dT*dG*dC*dA*dT*dC*dT*dG*dA*dA*dG*dG*dC*dT*dG*dA) [compound 12564]
Solution: 28

Exercise: For 12566 (antisense dT*dG*dC*dT*dG*dT*dC*dT*dG*dT*dG*dT*dC*dT*dG*dA*dG*dG*dC*dC) [compound 12566] then?
Solution: 42

# context switch: different substance, same % EXPRESSION
Exercise: I'm curious: which % EXPRESSION was measured for 12560 (antisense GTCCGGGCCAGGCCAAAGTC; DNA, all phosphorothioate, methylation of C not given here) [compound 12560] tested on JNK2 mRNA?
Solution: 11

###

Measured % EXPRESSION JNK2 values are reported for all entries that follow.
Test system: rat JNK2 mRNA
Test details: Northern assay of rat JNK2 (p54a) mRNA in A10 aortic smooth muscle cells
Format: cell-based
Assay conditions: rat JNK2 mRNA, A10 cells, oligonucleotides targeted to rat JNK1
Strand notation (5' to 3'): a small letter for the sugar, then the base; units joined by * are phosphorothioate-linked, units joined directly phosphodiester-linked; [ ] holds rarer units or linkages, { } end groups; capitals alone tell only the bases. e = 2'-O-(2-methoxyethyl) (MOE); [5mC] = 5-methylcytosine; d = 2'-deoxy (DNA)
Numbers only here, please. The scale is %.

// below: answered substances
Exercise: What measured % EXPRESSION JNK2 is associated with 21866 (DNA eTeGeAeAeT*dT*d[5mC]*dA*dG*dG*dA*d[5mC]*dA*dA*dG*eGeTeGeTeT; antisense) [compound 21866] on rat JNK2 mRNA?
Solution: 98

Exercise: Now the substance 21870 (DNA e[5mC]e[5mC]eAeGeA*dG*dT*d[5mC]*dG*dG*dA*dT*d[5mC]*dT*dG*eTeGeGeAe[5mC]; antisense) [compound 21870]
Solution: 87

Exercise: What would you report for 21863 (DNA e[5mC]eAeGe[5mC]eA*dG*dA*dG*dT*dG*dA*dA*dG*dG*dT*eGe[5mC]eTeTeG; antisense) [compound 21863] ?
Solution: 107

---
Exercise: Short answer please: % EXPRESSION JNK2, rat JNK2 mRNA, entry 21869 (DNA eGe[5mC]eTeGe[5mC]*dA*d[5mC]*d[5mC]*dT*dA*dA*dA*dG*dG*dA*eGeAe[5mC]eGeG; antisense) [compound 21869]
Solution: 93

Exercise: Further, for 21861 (DNA e[5mC]eGeGeTeA*dG*dG*d[5mC]*dT*d[5mC]*dG*d[5mC]*dT*dT*dA*eGe[5mC]eAeTeG; antisense) [compound 21861] ?
Solution: 13

Exercise: Next up: 21858 (DNA e[5mC]e[5mC]eTeGe[5mC]*dT*d[5mC]*dG*d[5mC]*dG*dG*d[5mC]*dT*d[5mC]*d[5mC]*eGe[5mC]eGeTeT; antisense) [compound 21858]
Solution: 89

###

Test system: JNK1 mRNA
Test details: Northern assay of JNK1 mRNA expression in A549 cells
Type: cell-based, human
Assay conditions: JNK1 mRNA, t = 48 h; 300 nM for 20 hours then 200 nM for 4 hours
Procedure: In order to evaluate the activity of potential JNK-modulating oligonucleotides, human lung carcinoma cell line A549 (American Type Culture Collection, Rockville, Md. No. ATCC CCL-185) cells or other cell lines as indicated in the Examples, were grown and treated with oligonucleotides or control solutions as detailed below. […] Northern Assays: The mRNA expression of each JNK protein was determined by using a nucleic acid probe specifically hybridizable thereto. […]
e = 2'-O-(2-methoxyethyl) (MOE); [5mC] = 5-methylcytosine; d = 2'-deoxy (DNA)
Decide using RNA % Inhibition alone. Strictly below 80%: met. Equal to or above 80%: not met.

Field: example entries. Status: answers known.
Exercise: Is it true that RNA % Inhibition reported for 15350 (antisense CTCTCTGTAGGCCCGCTTGG; sugars from the 5' end d9 e11, [5mC] at 12, 13, 14, 16, linkages s9 o10 (s phosphorothioate, o phosphodiester), methylation of C not given here) [compound 15350] is less than 80%?
Solution: met

Exercise: Request: 15348 (antisense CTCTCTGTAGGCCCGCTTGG; sugars from the 5' end e11 d9, [5mC] at 1, 3, 5, all phosphorothioate, methylation of C not given here) [compound 15348]
Solution: met

Exercise: Field entry: 15349 (antisense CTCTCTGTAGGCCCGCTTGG; sugars from the 5' end d9 e11, [5mC] at 12, 13, 14, 16, all phosphorothioate, methylation of C not given here) [compound 15349]
Solution: met

Exercise: Here is the next substance: 15351 (antisense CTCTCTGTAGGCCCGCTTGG; sugars from the 5' end e11 d9, [5mC] at 1, 3, 5, linkages o10 s9 (s phosphorothioate, o phosphodiester), methylation of C not given here) [compound 15351]
Solution: met

New cases:
Exercise: Please determine if 15347 (antisense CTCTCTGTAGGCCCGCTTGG; sugars from the 5' end e5 d9 e6, [5mC] at 1, 3, 5, 16, linkages o4 s10 o5 (s phosphorothioate, o phosphodiester), methylation of C not given here) [compound 15347] is below 80% in terms of RNA % Inhibition.
Solution: not met

###

Test system: JNK1 protein
Test details: Western assay of JNK1 protein levels in A549 cells
Type: cell-based, human
Assay conditions: t = 48 h, 300 nM for 20 hours then 200 nM for 4 hours
Strand notation (5' to 3'): a small letter for the sugar, then the base; units joined by * are phosphorothioate-linked, units joined directly phosphodiester-linked; [ ] holds rarer units or linkages, { } end groups; capitals alone tell only the bases. e = 2'-O-(2-methoxyethyl) (MOE); [5mC] = 5-methylcytosine; d = 2'-deoxy (DNA)
Classification field: y = Protein % Control at or over 50%; n = Protein % Control under 50%.

Please review the entries below; each comes with its answer.
Exercise: Could you tell me if the measured Protein % Control of 15347 (antisense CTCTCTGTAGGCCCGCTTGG; sugars from the 5' end e5 d9 e6, [5mC] at 1, 3, 5, 16, linkages o4 s10 o5 (s phosphorothioate, o phosphodiester), methylation of C not given here) [compound 15347] reaches 50% or more?
Solution: n

Exercise: # iterate: 15345 (antisense e[5mC]*eT*e[5mC]*eT*e[5mC]*eT*eG*eT*eA*eG*eG*e[5mC]*e[5mC]*e[5mC]*eG*e[5mC]*eT*eT*eG*eG) [compound 15345]
Solution: y

Exercise: Another substance: 15350 (antisense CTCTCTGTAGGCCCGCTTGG; sugars from the 5' end d9 e11, [5mC] at 12, 13, 14, 16, linkages s9 o10 (s phosphorothioate, o phosphodiester), methylation of C not given here) [compound 15350]
Solution: y

Exercise: Quick one: 15351 (antisense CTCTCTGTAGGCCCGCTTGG; sugars from the 5' end e11 d9, [5mC] at 1, 3, 5, linkages o10 s9 (s phosphorothioate, o phosphodiester), methylation of C not given here) [compound 15351]
Solution: y

API: the following record is the query input.
Exercise: Test whether the substance 15346 (antisense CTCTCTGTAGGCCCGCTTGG; sugars from the 5' end e5 d9 e6, [5mC] at 1, 3, 5, 16, all phosphorothioate, methylation of C not given here) [compound 15346] records Protein % Control of 50% or higher.
Solution: n

###

# % EXPRESSION per entry
Tested on: rat JNK2 mRNA
Test details: Northern assay of rat JNK2 (p54a) mRNA in A10 aortic smooth muscle cells
Type: cell-based
Assay conditions: rat JNK2 (p54a) mRNA in A10 cells, relative to LIPOFECTIN-only control
Strand notation (5' to 3'): a small letter for the sugar, then the base; units joined by * are phosphorothioate-linked, units joined directly phosphodiester-linked; [ ] holds rarer units or linkages, { } end groups; capitals alone tell only the bases. e = 2'-O-(2-methoxyethyl) (MOE); [5mC] = 5-methylcytosine; d = 2'-deoxy (DNA)
Please state the figure in %; there is no need to write the unit.

Some substances with known % EXPRESSION results, for comparison:
Exercise: Please look up its % EXPRESSION: 18262 (antisense e[5mC]eAeGeTeT*dA*d[5mC]*dA*d[5mC]*dA*dT*dG*dA*dT*d[5mC]*eTeGeTe[5mC]eA) [compound 18262]
Solution: 50

Exercise: One more substance: 18265 (DNA eTeGeTe[5mC]eA*dG*d[5mC]*dT*d[5mC]*dT*dA*d[5mC]*dA*dT*dT*eAeGeGe[5mC]eA; antisense) [compound 18265]
Solution: 38

Exercise: What would you report for 18255 (antisense eTeGeTeGeG*dT*dG*dT*dG*dA*dA*d[5mC]*dA*d[5mC]*dA*eTeTeTeAeA) [compound 18255] ?
Solution: 21

Exercise: Quick one: 10260 (antisense eAeTe[5mC]eTeG*d[5mC]*dG*dA*dG*dG*dT*dT*dT*d[5mC]*dA*eTe[5mC]eGeGe[5mC]) [compound 10260]
Solution: 41

Exercise: Do the same for 18254 (antisense eTe[5mC]eAeTeG*dA*dT*dG*dT*dA*dG*dT*dG*dT*d[5mC]*eAeTeAe[5mC]eA) [compound 18254] please
Solution: 20

---
Exercise: Recorded % EXPRESSION for 18258 (antisense eGe[5mC]eTeTe[5mC]*dG*dT*d[5mC]*d[5mC]*dA*d[5mC]*dA*dG*dA*dG*eAeTe[5mC]e[5mC]eG) [compound 18258] , please?
Solution: 19

src = patent US20040029823A1
